Biological target: AR-VP16 (Homo sapiens, UniProt P10275)
Assay: AR-VP16 DNA Binding Assay, antagonist mode (HepG2 cells, 0.1 nM R1881)
Experimental: Cells were transiently transfected using Lipofectin (Life Technologies) according to the manufacturer's protocol. […] Transfected cells were incubated overnight then treated with ligand. […] For antagonist assays, the compounds were serially diluted and 50 μL of compound with RPMI supplemented with charcoal stripped serum plus methyltrienolone (R1881) were added to the cells. The final R1881 concentration used in the antagonist assays was 0.1 nM. […]
Record form. Attribute: IC50. Fill in for each entry.

Smiles input	IC50
N#Cc1ncc(N2C(=O)C3(CCC3)N(c3ccc(C(=O)N4CCCC4)c(F)c3)C2=S)cc1C(F)(F)F	> 1000 nM
Cc1cc(N2C(=O)C3(CCC3)N(c3ccc(OC4CCOCC4)cc3)C2=S)cnc1C#N	< 1000 nM
CC(=O)N1CCN(CCOc2ccc(N3C(=S)N(c4cnc(C#N)c(C(F)(F)F)c4)C(=O)C34CCC4)cc2F)CC1	< 1000 nM
CNC(=O)c1ccc(N2C(=S)N(c3cnc(C#N)c(OC)c3)C(=O)C23CCC3)cc1F	< 1000 nM
Cc1cc(N2C(=O)C3(CCC3)N(c3ccc(C(=O)Nc4ccc(Cl)cc4)c(F)c3)C2=S)cnc1C#N	< 1000 nM

Need IC50 for each of these compounds.
1. Cc1cc(N2C(=O)C3(CCC3)N(c3ccc(-c4cncc(F)c4)cc3)C2=S)cnc1C#N
2. N#Cc1ncc(N2C(=O)C3(CCC3)N(c3ccc(C(=O)NCc4cccc(Cl)c4)c(F)c3)C2=S)cc1C(F)(F)F
3. Cc1ccc(N2C(=S)N(c3cnc(C#N)c(C(F)(F)F)c3)C(=O)C23CCC3)c(F)c1
4. N#Cc1ncc(N2C(=O)C3(CCC3)N(c3ccc(OCCN4CCOCC4)c(F)c3)C2=S)cc1C(F)(F)F
5. Cc1ccc(N2C(=S)N(c3cnc(-c4cccnc4)c(C(F)(F)F)c3)C(=O)C23CCC3)cc1
6. N#Cc1ncc(N2C(=O)C3(CCC3)N(c3ccc(OCc4cccnc4)c(F)c3)C2=S)cc1C(F)(F)F
7. N#Cc1ncc(N2C(=O)C3(CCC3)N(c3ccc(OCCn4cccc4)c(F)c3)C2=S)cc1C(F)(F)F
8. N#Cc1ncc(N2C(=O)C3(CCC3)N(c3ccc(S(=O)(=O)CCc4ccncc4)cc3)C2=S)cc1C(F)(F)F

1: < 1000 nM; 2: < 1000 nM; 3: < 1000 nM; 4: < 1000 nM; 5: > 1000 nM; 6: < 1000 nM; 7: < 1000 nM; 8: > 1000 nM

Hi! Can you tell me IC50 for each of these compounds?
1. N#Cc1ncc(N2C(=O)C3(CCC3)N(c3ccc(C(=O)NCCCN4CCCC4)c(F)c3)C2=S)cc1C(F)(F)F
2. CC(C)(C)NC(=O)c1ccc(N2C(=S)N(c3cnc(C#N)c(C(F)(F)F)c3)C(=O)C23CCC3)cc1F

1: < 1000 nM; 2: < 1000 nM

* * *

Target: AR-VP16 (Homo sapiens, UniProt P10275)
Assay: AR-VP16 DNA Binding Assay, antagonist mode (HepG2 cells, 0.1 nM R1881)
Readout label: IC50

Example entries and their recorded answers appear below.
Smiles input	Study system	IC50
N#Cc1ncc(N2C(=O)C3(CCC3)N(c3cccnc3)C2=S)cc1C(F)(F)F	AR-VP16 (Homo sapiens, UniProt P10275)	> 1000 nM
CNC(=O)c1ccc(N2C(=S)N(c3cnc(C#N)c(C(F)F)c3)C(=O)C23CCC3)cc1F	AR-VP16 (Homo sapiens, UniProt P10275)	< 1000 nM
CNC(=O)c1ccc(N2C(=S)N(c3cnc(C#N)c(C)c3)C(=O)C23CCC3)cc1	AR-VP16 (Homo sapiens, UniProt P10275)	> 1000 nM
Cc1cc(N2C(=S)N(c3cnc(C#N)c(C)c3)C(=O)C23CCC3)ccc1C(N)=O	AR-VP16 (Homo sapiens, UniProt P10275)	> 1000 nM

Hi there! I need IC50 for each item below, if you can.
1. N#Cc1ncc(N2C(=O)C3(CCC3)N(c3ccc(OCCCSCCCC(F)(F)C(F)(F)F)c(F)c3)C2=S)cc1C(F)(F)F
2. N#Cc1ncc(N2C(=O)C3(CCC3)N(c3ccc(OCCc4ccncc4)c(F)c3)C2=S)cc1C(F)(F)F
3. COc1ccc(N2C(=S)N(c3cnc(C#N)c(C)c3)C(=O)C23CCC3)cc1
4. N#Cc1ncc(N2C(=O)C3(CCC3)N(c3ccc(C(N)=O)c(F)c3)C2=S)cc1C(F)(F)F

1. < 1000 nM
2. < 1000 nM
3. < 1000 nM
4. < 1000 nM

* * *

Target: AR-VP16 (Homo sapiens, UniProt P10275)
Sequence (P10275 560-920 limits assumed): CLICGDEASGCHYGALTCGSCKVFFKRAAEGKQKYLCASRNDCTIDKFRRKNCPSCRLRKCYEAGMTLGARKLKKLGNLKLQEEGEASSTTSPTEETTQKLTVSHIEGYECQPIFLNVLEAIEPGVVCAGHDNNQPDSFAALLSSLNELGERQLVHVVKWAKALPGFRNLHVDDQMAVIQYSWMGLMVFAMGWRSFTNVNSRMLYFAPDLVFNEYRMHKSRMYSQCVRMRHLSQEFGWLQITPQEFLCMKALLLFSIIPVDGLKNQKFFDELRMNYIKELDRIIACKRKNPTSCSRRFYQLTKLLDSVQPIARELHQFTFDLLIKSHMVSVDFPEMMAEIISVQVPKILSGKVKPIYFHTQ
Test: AR-VP16 DNA Binding Assay, antagonist mode (HepG2 cells, 0.1 nM R1881)
pIC50: −log10 of the molar value.
Give pIC50 for every item shown.

Would you please look over these solved cases?
Molecule	Result
CCOC(=O)CNC(=O)c1ccc(N2C(=S)N(c3cnc(C#N)c(C(F)(F)F)c3)C(=O)C23CCC3)cc1F [Compound 245]	< 6.00
N#Cc1ncc(N2C(=O)C3(CCC3)N(c3ccc(CCCC(=O)Nc4ccccc4)cc3)C2=S)cc1C(F)(F)F [Compound 292]	< 6.00

With those in mind, consider the next molecule.
Provide pIC50 value for the following molecule: N#Cc1ncc(N2C(=O)C3(CCC3)N(c3ccc(OCCCC[S+]([O-])CCCC(F)(F)C(F)(F)F)c(F)c3)C2=S)cc1C(F)(F)F (stereo not drawn) [Compound 152]
> 6.00

* * *

Kindly state pIC50 for each of the entries shown.
Biological target: AR-VP16 (Homo sapiens, UniProt P10275)
Sequence (P10275 560-920 limits assumed): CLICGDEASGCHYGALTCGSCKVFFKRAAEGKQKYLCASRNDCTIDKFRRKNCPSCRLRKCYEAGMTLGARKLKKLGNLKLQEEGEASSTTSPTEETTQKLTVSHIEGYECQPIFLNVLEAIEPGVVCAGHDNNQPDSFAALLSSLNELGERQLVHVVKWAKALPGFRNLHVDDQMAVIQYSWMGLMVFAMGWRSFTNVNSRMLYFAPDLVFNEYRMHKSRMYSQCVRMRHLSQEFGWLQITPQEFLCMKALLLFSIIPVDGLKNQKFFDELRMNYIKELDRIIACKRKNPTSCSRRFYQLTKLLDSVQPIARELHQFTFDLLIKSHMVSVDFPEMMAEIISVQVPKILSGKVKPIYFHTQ
Experiment: AR-VP16 DNA Binding Assay, antagonist mode (HepG2 cells, 0.1 nM R1881)
pIC50: −log10 of the molar value.

Smiles input	Result
N#Cc1ncc(N2C(=O)C3(CCC3)N(c3c(F)cccc3F)C2=S)cc1C(F)(F)F	> 6.00

Please state pIC50 for every compound in the list that follows.
1. Cc1cc(N2C(=O)C3(CCC3)N(c3ccc(C(=O)Nc4cccc(Cl)c4)c(F)c3)C2=S)cnc1C#N
2. COCCCCOc1ccc(N2C(=S)N(c3cnc(C#N)c(C(F)(F)F)c3)C(=O)C23CCC3)cc1F
3. N#Cc1ncc(N2C(=O)C3(CCC3)N(c3ccc(F)c(C(=O)O)c3)C2=S)cc1C(F)(F)F

["> 6.00", "> 6.00", "< 6.00"]

* * *

Target: AR-VP16 (Homo sapiens, UniProt P10275)
Experiment: AR-VP16 DNA Binding Assay, antagonist mode (HepG2 cells, 0.1 nM R1881)
pIC50: −log10 of the molar value.
Readout label: pIC50

Smiles input	Result
N#Cc1ncc(N2C(=O)C3(CCC3)N(c3ccc(C(=O)NCc4cnccn4)c(F)c3)C2=S)cc1C(F)(F)F	> 6.00

For the 6 compounds below, give their pIC50 values.
1. N#Cc1ncc(N2C(=O)C3(CCC3)N(c3ccc(OC4CCOCC4)cc3)C2=S)cc1C(F)(F)F
2. Cc1ccc(N2C(=S)N(c3cnc(C#N)c(C(F)(F)F)c3)C(=O)C2(C)C)cc1
3. CNS(=O)(=O)c1ccc(N2C(=S)N(c3cnc(C#N)c(C(F)(F)F)c3)C(=O)C23CCC3)cc1
4. Cc1ccc(NC(=O)c2ccc(N3C(=S)N(c4cnc(C#N)c(C)c4)C(=O)C34CCC4)cc2F)cn1
5. N#Cc1ncc(N2C(=O)C3(CCC3)N(c3ccc(OCCCCOCc4ccccc4)c(F)c3)C2=S)cc1C(F)(F)F
6. N#Cc1ncc(N2C(=O)C3(CCC3)N(c3cccc(F)c3)C2=S)cc1C(F)(F)F

["> 6.00", "> 6.00", "< 6.00", "> 6.00", "> 6.00", "> 6.00"]

Dear colleague, could you send me pIC50 for each of the items below? Thanks.
1. N#Cc1ncc(N2C(=O)C3(CCC3)N(c3ccc(OC4CCN(CCO)CC4)cc3)C2=S)cc1C(F)(F)F
2. Cc1ccncc1-c1ccc(N2C(=S)N(c3cnc(C#N)c(C)c3)C(=O)C23CCC3)cc1
3. N#Cc1ncc(N2C(=O)C3(CCC3)N(c3cccc(-c4ccccc4)c3)C2=S)cc1C(F)(F)F

1. > 6.00
2. > 6.00
3. < 6.00

Would you be so kind as to report pIC50 for each listed record?
1. N#Cc1ncc(N2C(=O)C3(CCC3)N(c3ccccc3CO)C2=S)cc1C(F)(F)F
2. Cc1ccc(N2C(=S)N(c3cnc(C#N)c4ccccc34)C(=O)C23CCC3)cc1
3. Cc1ccc(N2C(=S)N(c3cnc(C#N)c(C(F)(F)F)c3)C(=O)C23CCC3)cc1

1. < 6.00
2. > 6.00
3. > 6.00

Would you be so kind as to report pIC50 for each listed record?
1. N#Cc1ncc(N2C(=O)C3(CCC3)N(c3ccc(F)c(OCCc4ccccn4)c3)C2=S)cc1C(F)(F)F
2. CC(=O)N1CCC(Oc2ccc(N3C(=S)N(c4cnc(C#N)c(C)c4)C(=O)C34CCC4)cc2)CC1

< 6.00
> 6.00
